# Tested on: Glycogen synthase kinase-3 alpha (Homo sapiens)
# Experimental protocol: concentration-response blocking of human GSK3A – biochemical, luminescence, cell-free homogeneous, retest, dose response (AID 463203)
# Setup conditions: GSK-3 alpha enzyme, ADP-Glo luminescence, 60 min
The source made the active and inactive calls.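 Rule for the calls: active = more than half of replicate measurements showing over 20% loss of kinase signal relative to plate controls; inconclusive = some but at most half of replicates over 20% loss; inactive = no replicate over 20% signal loss.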
Outcomes: active, inactive

> print(dat)
                                    compound  classification
 1  O=C(COc1ccc(-n2cnnn2)cc1)Nc1ccc(F)c(F)c1F        inactive
 2         O=C1C(SCCO)=C(SCCO)C(=O)c2ccccc21        inactive
 3  COc1ccc(-n2c(O)c(C=NC3CC3)c(=O)[nH]c2=O)cc1          active
 4        CC(C)=CC(=O)NCc1c(Cl)cccc1-n1cccc1        inactive
 5       COc1ccc2nc(NC(=O)CN3CCN(C)CC3)sc2c1        inactive
 6  O=C(Nc1cccc(O)c1)c1ccc([N+](=O)[O-])cc1Cl        inactive
 7  CCC(=NCCCn1ccnc1)c1c(O)n(-c2ccccc2)c(=O)[nH]c1=O          active
 8  O=c1cc(-c2ccccc2Cl)oc2c(NS(=O)(=O)c3cc(Cl)cc(Cl)c3O)ccc(O)c12        inactive
 9  CN(Cc1c(C(=O)N/N=C/c2ccc(O)cc2)nnn1-c1nonc1N)c1ccccc1          active
10  CS(=O)(=O)N1CCN(c2ccccc2NC(=O)c2cccs2)CC1        inactive
11  CCc1ccc(OCC(O)CNC(C)(C)C)cc1 (stereo unspecified)        inactive
